target-desc: Human M4 mAChR (Homo sapiens)
Construct: host or cells: HEK293 (Sor-L9 HEK293 human/M4/GloSensor Cell Clone Number 40)
Sequence (P08173 whole entry): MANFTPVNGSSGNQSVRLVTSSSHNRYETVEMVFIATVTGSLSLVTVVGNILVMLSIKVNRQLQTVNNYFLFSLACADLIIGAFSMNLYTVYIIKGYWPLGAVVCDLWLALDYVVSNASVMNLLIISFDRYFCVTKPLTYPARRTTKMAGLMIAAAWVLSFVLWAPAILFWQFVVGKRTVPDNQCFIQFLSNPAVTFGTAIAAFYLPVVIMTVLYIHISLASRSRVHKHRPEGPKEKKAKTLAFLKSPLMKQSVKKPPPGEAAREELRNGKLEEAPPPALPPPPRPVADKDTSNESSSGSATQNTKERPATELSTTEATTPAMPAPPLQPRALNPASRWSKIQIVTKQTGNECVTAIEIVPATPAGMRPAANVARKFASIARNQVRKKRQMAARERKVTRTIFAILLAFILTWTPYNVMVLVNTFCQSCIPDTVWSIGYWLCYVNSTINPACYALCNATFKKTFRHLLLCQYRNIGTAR
protocol-details: Muscarinic hM4 Agonist GloSensor cAMP Assay
Format: cell-based
condition-label: enantiomers reported in footnotes to Table 1; number of determinations in parentheses; read-out: M4 Emax
Criterion: Emax strictly under 70%. Met: Fulfilled. Not met: Not fulfilled.

Examples with answers:
Problem: # check: Emax < 70% for CCOC(=O)N1CC2(CCC(N3CCN(c4cccnc4OC(F)(F)F)CC3)C2)C1 (single isomer, unassigned) [enantiomer of Example 20]
Solution: Not fulfilled

Problem: # check: Emax < 70% for CCOC(=O)N1CC2(CCC(N3CCN(c4cccnc4OC(F)F)CC3)C2)C1 (single isomer, unassigned) [enantiomer of Example 19]
Solution: Not fulfilled

Problem: # check: Emax < 70% for CCOC(=O)N1CC2(CCC(N3CCN(c4ncccc4-c4cnsn4)CC3)C2)C1 (single isomer, unassigned) [enantiomer of Example 34]
Solution: Not fulfilled

Problem: # check: Emax < 70% for CCOC(=O)N1CC2(CCC(N3CCN(c4ncccc4C)CC3)C2)C1 (single isomer, unassigned) [enantiomer of Example 21]
Solution: Not fulfilled

Problem: # check: Emax < 70% for CCOC(=O)N1CC2(CCC(N3CCN(c4ncccc4-c4cnc(C#N)cn4)CC3)C2)C1 (single isomer, unassigned) [enantiomer of Example 41]
Solution: Fulfilled

Problem: # check: Emax < 70% for CCOC(=O)N1CC2(CCC(N3CCN(c4ncc(F)cc4-c4cscn4)CC3)C2)C1 (single isomer, unassigned) [enantiomer of Example 26]
Solution: Fulfilled

Continuing:
Problem: # check: Emax < 70% for CCOC(=O)N1CC2(CCC(N3CCN(c4ncccc4C4CC4)CC3)C2)C1 (single isomer, unassigned) [enantiomer of Example 22]
Solution: Not fulfilled
